*1 amine or outer side, *2 acyl side, *3 side chain or, on linkers, in order; H or OH if unused. Where a SMILES comes first, the peptide text is derived from it. [ ]: non-standard residue; d: D form. The star is where a group is joined. X3 = C=CCCN([C@@H](CC(C)C)C(=O)[*:2])[*:1]; pY = N[C@@H](Cc1ccc(OP(=O)(O)O)cc1)C(=O)O; NH(but-3-enyl) = C=CCCN*
Read-out record for SHC-transforming protein 1 (Homo sapiens, UniProt P29353): IC50
reported.metric: IC50 (µM)

molecule	reported.metric	value.unit	result.number
C=CCCNC(=O)[C@H](CC(C)C)N(CCC=C)C(=O)CNC(=O)[C@H](CCC(N)=O)NC(=O)[C@H](Cc1ccc(OP(=O)(O)O)cc1)NC(C)=O	IC50	µM	84
C=CCCNC(=O)[C@H](CO)NC(=O)[C@H](CC(C)C)N(CCC=C)C(=O)CNC(=O)[C@H](CCC(N)=O)NC(=O)[C@H](Cc1ccc(OP(=O)(O)O)cc1)NC(C)=O (Ac-[pY]QG[X3]S-{NH(but-3-enyl)})	IC50	µM	89

---

*1 amine or outer side, *2 acyl side, *3 side chain or, on linkers, in order; H or OH if unused. Where a SMILES comes first, the peptide text is derived from it. [ ]: non-standard residue; d: D form. The star is where a group is joined. X2 = O=C(c1cc(N=C=S)ccc1-c1c2ccc(=O)cc-2oc2cc(O)ccc12)*; Achc(cis-1,4) = O=C([C@H]1CC[C@@H](N[*:1])CC1)[*:2]; Azetidine3carboxylic = O=C(C1CN([*:1])C1)[*:2]; pY = N[C@@H](Cc1ccc(OP(=O)(O)O)cc1)C(=O)O; Trx = NC[C@H]1CC[C@H](C(=O)O)CC1; X6 = O=C([C@H](O)CCN[*:1])[*:2]; X4 = O=C(CC(O)CN[*:1])[*:2]; 4Abz = Nc1ccc(C(=O)O)cc1; Inp = O=C(O)C1CCNCC1
Read-out record for SHC-transforming protein 1 (Homo sapiens, UniProt P29353): Kd
reported.metric: Kd (µM)

molecule	value.unit	result.number
CC(C)C[C@H](NC(=O)CNC(=O)[C@H](CCC(N)=O)NC(=O)[C@H](Cc1ccc(OP(=O)(O)O)cc1)NC(=O)C1CCN(C(=O)c2cc(N=C=S)ccc2-c2c3ccc(=O)cc-3oc3cc(O)ccc23)CC1)C(=O)N[C@@H](CO)C(N)=O ({X2-Inp}-[pY]QGLS-NH2)	µM	14.2
CC(C)C[C@H](NC(=O)CNC(=O)[C@H](CCC(N)=O)NC(=O)[C@H](Cc1ccc(OP(=O)(O)O)cc1)NC(=O)[C@H]1CC[C@H](CNC(=O)c2cc(N=C=S)ccc2-c2c3ccc(=O)cc-3oc3cc(O)ccc23)CC1)C(=O)N[C@@H](CO)C(N)=O ({X2-Trx}-[pY]QGLS-NH2)	µM	18
CC(C)C[C@H](NC(=O)CNC(=O)[C@H](CCC(N)=O)NC(=O)[C@H](Cc1ccc(OP(=O)(O)O)cc1)NC(=O)[C@H](O)CCNC(=O)c1cc(N=C=S)ccc1-c1c2ccc(=O)cc-2oc2cc(O)ccc12)C(=O)N[C@@H](CO)C(N)=O (X2-[X6][pY]QGLS-NH2)	µM	9
CC(C)C[C@H](NC(=O)CNC(=O)[C@H](CCC(N)=O)NC(=O)[C@H](Cc1ccc(OP(=O)(O)O)cc1)NC(=O)[C@H]1CC[C@@H](NC(=O)c2cc(N=C=S)ccc2-c2c3ccc(=O)cc-3oc3cc(O)ccc23)CC1)C(=O)N[C@@H](CO)C(N)=O (X2-[Achc(cis-1,4)][pY]QGLS-NH2)	µM	0.5
CC(C)C[C@H](NC(=O)CNC(=O)[C@H](CCC(N)=O)NC(=O)[C@H](Cc1ccc(OP(=O)(O)O)cc1)NC(=O)C1CN(C(=O)c2cc(N=C=S)ccc2-c2c3ccc(=O)cc-3oc3cc(O)ccc23)C1)C(=O)N[C@@H](CO)C(N)=O (X2-[Azetidine3carboxylic][pY]QGLS-NH2)	µM	5.3
CC(C)C[C@H](NC(=O)CNC(=O)[C@H](CCC(N)=O)NC(=O)[C@H](Cc1ccc(OP(=O)(O)O)cc1)NC(=O)c1ccc(NC(=O)c2cc(N=C=S)ccc2-c2c3ccc(=O)cc-3oc3cc(O)ccc23)cc1)C(=O)N[C@@H](CO)C(N)=O ({X2-4Abz}-[pY]QGLS-NH2)	µM	23.9
CC(C)C[C@H](NC(=O)CNC(=O)[C@H](CCC(N)=O)NC(=O)[C@H](Cc1ccc(OP(=O)(O)O)cc1)NC(=O)CC(O)CNC(=O)c1cc(N=C=S)ccc1-c1c2ccc(=O)cc-2oc2cc(O)ccc12)C(=O)N[C@@H](CO)C(N)=O (some centres not stated) (X2-[X4][pY]QGLS-NH2)	µM	8.6
